# Tested on: HeLa
# experiment_description: Growth inhibition of human HeLa cells after 48 hrs by SRB assay
# Type: functional
readout_label: log10 of GI50 (log10 of the value in µM)

{"molecular_string": "CCOc1ccc2sc(S(C)(=O)=O)nc2c1S(=O)(=O)NC(C)(C)C", "quantitative_result": -0.22}
{"molecular_string": "CCOc1ccc2sc(S(C)(=O)=O)nc2c1N", "quantitative_result": 1.53}
{"molecular_string": "CS(=O)(=O)c1nc2cc(OCc3ccc(Cl)cc3)ccc2s1", "quantitative_result": 1.52}
{"molecular_string": "CCOc1ccc2sc(S(C)(=O)=O)nc2c1S(=O)(=O)NC(CC)CC", "quantitative_result": 1.29}
{"molecular_string": "CCOc1ccc2sc(S(C)(=O)=O)nc2c1S(=O)(=O)Nc1ccc(Br)cc1", "quantitative_result": 0.83}
{"molecular_string": "CCOc1ccc2sc(S(C)(=O)=O)nc2c1S(=O)(=O)Nc1ccc([N+](=O)[O-])cc1", "quantitative_result": -0.66}

----------
zone of inhibition at 5000 µg/mL values, listed per item
# Test system: Escherichia coli
# experiment_description: Antibacterial activity against Escherichia coli ATCC 35421 assessed as zone of inhibition at 5 mg/ml by agar well diffusion method
# Type: functional
# recorded_conditions: read-out: DIZ

{"molecular_string": "CCOc1ccc2sc(S(C)(=O)=O)nc2c1S(=O)(=O)NC(CC)CC", "target_or_system": "Escherichia coli", "zone of inhibition at 5000 µg/mL": "10 mm"}
{"molecular_string": "CS(=O)(=O)c1nc2cc(OCc3ccc(Cl)cc3)ccc2s1", "target_or_system": "Escherichia coli", "zone of inhibition at 5000 µg/mL": "10 mm"}
{"molecular_string": "CCOc1ccc2sc(S(C)(=O)=O)nc2c1NC(=O)CCl", "target_or_system": "Escherichia coli", "zone of inhibition at 5000 µg/mL": "≤ 7 mm"}
{"molecular_string": "CS(=O)(=O)c1nc2cc(O)ccc2s1", "target_or_system": "Escherichia coli", "zone of inhibition at 5000 µg/mL": "≤ 7 mm"}
{"molecular_string": "CCOc1ccc2sc(S(C)(=O)=O)nc2c1[N+](=O)[O-]", "target_or_system": "Escherichia coli", "zone of inhibition at 5000 µg/mL": "≤ 7 mm"}
{"molecular_string": "CCOc1ccc2sc(S(C)(=O)=O)nc2c1NC(=O)CNCN1CCN(C(=O)OC(C)(C)C)CC1", "target_or_system": "Escherichia coli", "zone of inhibition at 5000 µg/mL": "≤ 7 mm"}
{"molecular_string": "CS(=O)(=O)c1nc2cc(OCc3ccc(-c4ccccc4)cc3)ccc2s1", "target_or_system": "Escherichia coli", "zone of inhibition at 5000 µg/mL": "≤ 7 mm"}
{"molecular_string": "CCOc1ccc2sc(S(C)(=O)=O)nc2c1S(=O)(=O)Nc1ccc(Br)cc1", "target_or_system": "Escherichia coli", "zone of inhibition at 5000 µg/mL": "10 mm"}
{"molecular_string": "CS(=O)(=O)c1nc2cc(OCc3ccc(OCc4ccccc4)cc3)ccc2s1", "target_or_system": "Escherichia coli", "zone of inhibition at 5000 µg/mL": "≤ 7 mm"}
{"molecular_string": "CCOc1ccc2sc(S(C)(=O)=O)nc2c1S(=O)(=O)Nc1ccc([N+](=O)[O-])cc1", "target_or_system": "Escherichia coli", "zone of inhibition at 5000 µg/mL": "10 mm"}
{"molecular_string": "CCOc1ccc2sc(S(C)(=O)=O)nc2c1NC(=O)CNC(C)C", "target_or_system": "Escherichia coli", "zone of inhibition at 5000 µg/mL": "≤ 7 mm"}
